Recorded values, source patent US20180228828A1.

Catalogue of concentration at 24 h values
# Assay Remarks: human bioavailability comparison study, Tablet Formulation 9 vs co-administered single entity products
# Type: in vivo
# Measurement Context: human, plasma, oral, Treatment C: two units Tablet Formulation 9b; human plasma, fasted; read-out: C24 GM
Answer with the figure and its unit, nothing else.

C=C[C@@H]1C[C@]1(NC(=O)[C@@H]1C[C@@H]2CN1C(=O)[C@H](C(C)(C)C)NC(=O)O[C@@H]1C[C@H]1CCCCCc1nc3ccc(OC)cc3nc1O2)C(=O)NS(=O)(=O)C1CC1 [Compound III, hydrate]
6.63 nM

Task: Field request: concentration at 24 h | item: COC(=O)N[C@H](C(=O)N1CCC[C@H]1c1nc(-c2ccc3c(c2)O[C@@H](c2ccccc2)n2c-3cc3cc(-c4c[nH]c([C@@H]5CCCN5C(=O)[C@@H](NC(=O)OC)C(C)C)n4)ccc32)c[nH]1)C(C)C
Result: 37.4 nM
